Attribute: pEC50
Biological target: Telomerase reverse transcriptase (Homo sapiens)
Assay: Concentration required to inhibit 50% of telomerase activity
Value format note: pEC50 is -log10 of concentration (mol/L); just state the number.

The examples below pair each entry with its known result.
- c1cc2cc3ccc(N4CCCC4)cc3nc2cc1N1CCCC1: 5.28
- O=C(CCN1CCCCC1)Nc1ccc2c(O)c3cc(NC(=O)CCN4CCCCC4)ccc3nc2c1: 6.40
- CN(C)CCC(=O)Nc1ccc2c(O)c3ccc(NC(=O)CCN(C)C)cc3nc2c1: 5.37

The compound identified as `O=C(CCN1CCCCC1)Nc1ccc2nc3ccc(NC(=O)CCN4CCCCC4)cc3c(O)c2c1` registered its pEC50 at 5.72

The compound identified as `c1cc2cc3ccc(N4CCCCC4)cc3nc2cc1N1CCCCC1` registered its pEC50 at 5.55

----------
Attribute: pIC50
Tested on: SK-OV-3
Experiment: Concentration required to inhibit 50% of human carcinoma SKOV3 cell lines
Assay type: functional, cell-based
Value format note: pIC50 is -log10 of concentration (mol/L); just state the number.

The examples below pair each entry with its known result.
- CCN(CC)CCC(=O)Nc1ccc2c(O)c3cc(NC(=O)CCN(CC)CC)ccc3nc2c1: 4.60
- CC1CCCCN1CCC(=O)Nc1ccc2c(O)c3ccc(NC(=O)CCN4CCCCC4C)cc3nc2c1 (stereo not given): 4.98
- O=C(CCN1CCC(O)CC1)Nc1ccc2c(O)c3cc(NC(=O)CCN4CCC(O)CC4)ccc3nc2c1: 4.60
- CCN(CC)c1ccc2cc3ccc(N(CC)CC)cc3nc2c1: 5.64
- O=C(CCN1CCCCC1)Nc1ccc2c(O)c3ccc(NC(=O)CCN4CCCCC4)cc3nc2c1: 4.68
- O=C(CCN1CCCCC1CO)Nc1ccc2c(O)c3cc(NC(=O)CCN4CCCCC4CO)ccc3nc2c1 (stereo not given): 4.60
- O=C(CCN1CCCCC1)Nc1ccc2c(O)c3cc(NC(=O)CCN4CCCCC4)ccc3nc2c1: 4.60
- c1cc2cc3ccc(N4CCCC4)cc3nc2cc1N1CCCC1: 5.59

I looked up `CC1CCN(CCC(=O)Nc2ccc3c(O)c4cc(NC(=O)CCN5CCC(C)CC5)ccc4nc3c2)CC1` and its pIC50 for SK-OV-3 was 4.60

I looked up `CC1CCN(CCC(=O)Nc2ccc3c(O)c4ccc(NC(=O)CCN5CCC(C)CC5)cc4nc3c2)CC1` and its pIC50 for SK-OV-3 was 5.25

I looked up CCC1CCCCN1CCC(=O)Nc1ccc2c(O)c3ccc(NC(=O)CCN4CCCCC4CC)cc3nc2c1 (stereo not given) and its pIC50 for SK-OV-3 was 4.92

I looked up `CCN1CCN(CCC(=O)Nc2ccc3c(O)c4ccc(NC(=O)CCN5CCN(CC)CC5)cc4nc3c2)CC1` and its pIC50 for SK-OV-3 was 4.98

I looked up CC[n+]1c(-c2ccccc2)c2cc(N)ccc2c2ccc(N)cc21 [HOMIDIUM BROMIDE] and its pIC50 for SK-OV-3 was 5.35

I looked up `c1cc2cc3ccc(N4CCCCC4)cc3nc2cc1N1CCCCC1` and its pIC50 for SK-OV-3 was 6.30

----------
Target: Telomerase reverse transcriptase (Homo sapiens, UniProt O14746)
Sequence (O14746 whole entry): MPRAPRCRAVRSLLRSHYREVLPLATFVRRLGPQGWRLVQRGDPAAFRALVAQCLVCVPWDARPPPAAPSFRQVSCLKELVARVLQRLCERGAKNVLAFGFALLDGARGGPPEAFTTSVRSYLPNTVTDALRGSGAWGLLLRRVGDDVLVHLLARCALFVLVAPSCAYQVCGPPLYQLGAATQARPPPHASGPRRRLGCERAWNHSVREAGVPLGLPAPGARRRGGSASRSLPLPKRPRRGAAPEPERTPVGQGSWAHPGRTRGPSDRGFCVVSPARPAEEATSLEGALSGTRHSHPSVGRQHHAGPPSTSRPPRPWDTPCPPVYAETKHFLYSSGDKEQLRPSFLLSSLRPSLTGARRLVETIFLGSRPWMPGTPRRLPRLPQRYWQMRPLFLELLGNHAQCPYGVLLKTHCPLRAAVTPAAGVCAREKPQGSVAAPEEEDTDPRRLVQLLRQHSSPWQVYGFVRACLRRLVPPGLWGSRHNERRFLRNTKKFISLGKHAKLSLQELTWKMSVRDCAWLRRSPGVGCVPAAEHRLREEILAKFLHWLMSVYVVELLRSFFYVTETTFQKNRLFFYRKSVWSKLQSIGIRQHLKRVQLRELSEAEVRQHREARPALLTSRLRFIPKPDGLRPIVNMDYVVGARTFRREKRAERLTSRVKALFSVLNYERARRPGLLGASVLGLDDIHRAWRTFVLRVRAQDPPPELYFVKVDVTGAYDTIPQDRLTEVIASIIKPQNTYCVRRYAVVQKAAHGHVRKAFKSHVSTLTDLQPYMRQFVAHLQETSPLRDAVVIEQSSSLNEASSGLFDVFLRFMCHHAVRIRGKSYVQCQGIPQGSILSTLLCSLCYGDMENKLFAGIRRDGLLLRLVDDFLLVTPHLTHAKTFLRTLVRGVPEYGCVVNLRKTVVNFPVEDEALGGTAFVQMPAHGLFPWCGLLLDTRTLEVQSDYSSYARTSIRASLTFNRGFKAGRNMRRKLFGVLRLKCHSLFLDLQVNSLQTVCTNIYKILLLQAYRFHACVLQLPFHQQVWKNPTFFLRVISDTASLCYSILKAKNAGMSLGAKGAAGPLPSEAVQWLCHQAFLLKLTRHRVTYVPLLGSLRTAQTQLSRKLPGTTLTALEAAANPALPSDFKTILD
Test: Concentration required to inhibit 50% of telomerase activity
Attribute: log10(EC50)
Hey, these are logged values: log10 of EC50, nM being the unit before logging.

The examples below pair each entry with its known result.
• O=C(CCN1CCCCC1)Nc1ccc2c(O)c3ccc(NC(=O)CCN4CCCCC4)cc3nc2c1 = 3.77
• CCN1CCN(CCC(=O)Nc2ccc3c(O)c4ccc(NC(=O)CCN5CCN(CC)CC5)cc4nc3c2)CC1 = 3.28
• O=C(CCN1CCC(O)CC1)Nc1ccc2c(O)c3cc(NC(=O)CCN4CCC(O)CC4)ccc3nc2c1 = 2.30
• O=C(CCN1CCCC1)Nc1ccc2nc3ccc(NC(=O)CCN4CCCC4)cc3c(O)c2c1 = 3.76
• CCN(CC)CCC(=O)Nc1ccc2c(O)c3cc(NC(=O)CCN(CC)CC)ccc3nc2c1 = 2.85

In the following, a different compound is considered.
The compound identified as `O=C(CCN1CCCC1)Nc1ccc2c(O)c3ccc(NC(=O)CCN4CCCC4)cc3nc2c1` registered its log10(EC50) at 3.91

----------
Target: Telomerase reverse transcriptase (Homo sapiens, UniProt O14746)
Assay: Concentration required to inhibit 50% of telomerase activity
pEC50: −log10 of the molar value.
Threshold check on pEC50: at or above 6 gives TRUE, strictly below gives FALSE.

A selection of reference data follows.
- O=C(CCN1CCCCC1CO)Nc1ccc2c(O)c3cc(NC(=O)CCN4CCCCC4CO)ccc3nc2c1 (stereo not drawn): TRUE
- CC1CCN(CCC(=O)Nc2ccc3c(O)c4cc(NC(=O)CCN5CCC(C)CC5)ccc4nc3c2)CC1: TRUE
- CC1CCN(CCC(=O)Nc2ccc3c(O)c4ccc(NC(=O)CCN5CCC(C)CC5)cc4nc3c2)CC1: FALSE
- CC1CCCCN1CCC(=O)Nc1ccc2nc3ccc(NC(=O)CCN4CCCCC4C)cc3c(O)c2c1 (stereo not drawn): FALSE
- CCN(CC)c1ccc2cc3ccc(N(CC)CC)cc3nc2c1: FALSE

Q: Item `O=C(CCN1CCC(O)CC1)Nc1ccc2c(O)c3ccc(NC(=O)CCN4CCC(O)CC4)cc3nc2c1` with pEC50 of 6 or above?
A: FALSE

Q: Item `O=C(CCN1CCC(O)CC1)Nc1ccc2nc3ccc(NC(=O)CCN4CCC(O)CC4)cc3c(O)c2c1` with pEC50 of 6 or above?
A: FALSE

Q: Item `CCN(CC)CCC(=O)Nc1ccc2c(O)c3ccc(NC(=O)CCN(CC)CC)cc3nc2c1` with pEC50 of 6 or above?
A: FALSE

Q: Item `CN(C)CCC(=O)Nc1ccc2nc3ccc(NC(=O)CCN(C)C)cc3c(O)c2c1` with pEC50 of 6 or above?
A: TRUE

Q: Item CCC1CCCCN1CCC(=O)Nc1ccc2c(O)c3ccc(NC(=O)CCN4CCCCC4CC)cc3nc2c1 (stereo not drawn) with pEC50 of 6 or above?
A: FALSE

----------
Target: Telomerase reverse transcriptase (Homo sapiens, UniProt O14746)
Assay: Concentration required to inhibit 50% of telomerase activity
MEASUREMENT TYPE: EC50 (nM)
A number alone suffices; assume nM.

- O=C(CCN1CCOCC1)Nc1ccc2c(O)c3ccc(NC(=O)CCN4CCOCC4)cc3nc2c1: 4900

The compound identified as CC1CCCCN1CCC(=O)Nc1ccc2c(O)c3ccc(NC(=O)CCN4CCCCC4C)cc3nc2c1 (stereo not drawn) registered its EC50 at 2300

The compound identified as `CN1CCN(CCC(=O)Nc2ccc3nc4ccc(NC(=O)CCN5CCN(C)CC5)cc4c(O)c3c2)CC1` registered its EC50 at 1900
